# TARGET SYSTEM: DLL4 (human, UniProt Q9NR61)
# Sequence (Q9NR61 27-524): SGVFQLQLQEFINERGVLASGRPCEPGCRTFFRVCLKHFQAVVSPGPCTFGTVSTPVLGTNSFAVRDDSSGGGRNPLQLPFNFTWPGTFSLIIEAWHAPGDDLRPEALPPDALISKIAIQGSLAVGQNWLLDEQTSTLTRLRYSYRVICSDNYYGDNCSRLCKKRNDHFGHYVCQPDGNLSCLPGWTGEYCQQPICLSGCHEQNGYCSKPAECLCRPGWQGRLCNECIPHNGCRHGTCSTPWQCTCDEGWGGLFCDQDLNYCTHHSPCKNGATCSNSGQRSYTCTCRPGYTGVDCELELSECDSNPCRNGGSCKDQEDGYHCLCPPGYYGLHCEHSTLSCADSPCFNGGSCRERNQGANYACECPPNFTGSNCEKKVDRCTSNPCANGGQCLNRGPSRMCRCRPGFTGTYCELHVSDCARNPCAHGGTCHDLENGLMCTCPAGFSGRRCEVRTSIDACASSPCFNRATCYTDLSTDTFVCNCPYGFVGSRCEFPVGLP
# ASSAY: ELISA
Decide using EC50 alone. Strictly below 0.5 nM: 1. Equal to or above 0.5 nM: 0.

Reference set, count: 4
{"BINDER": "DVD461 DLL4 arm (antibody, V domains shown, DVD-Ig outer) VH: QVQLVQSGAEVKKPGASVKISCKASGYSFTAYYIHWVKQAPGQGLEWIGYISSYNGATNYNQKFKGRVTFTTDTSTSTAYMELRSLRSDDTAVYYCARDYDYDVGMDYWGQGTLVTVSS VL: DIVMTQSPDSLAVSLGERATISCRASESVDNYGISFMKWFQQKPGQPPKLLIYAASNQGSGVPDRFSGSGSGTDFTLTISSLQAEDVAVYYCQQSKEVPWTFGGGTKVEIKR", "CLASS NAME": 0}
{"BINDER": "DVD472 DLL4 arm (antibody, DVD-Ig inner) chain 1: EVQLVESGGGLVQPGGSLRLSCAASGFTFTDNWISWVRQAPGKGLEWVGYISPNSGFTYYADSVKGRFTISADTSKNTAYLQMNSLRAEDTAVYYCARDNFGGYFDYWGQGTLVTVSS chain 2: DIQMTQSPSSLSASVGDRVTITCRASQDVSTAVAWYQQKPGKAPKLLIYSASFLYSGVPSRFSGSGSGTDFTLTISSLQPEDFATTYYCQQSYTGTVTFGQGTKVEIKR", "CLASS NAME": 0}
{"BINDER": "DVD494 DLL4 arm (antibody, V domains shown, DVD-Ig inner) VH: EVQLQQSGPELVKPGASVKMSCKASGYTFTSYVINWVKQKPGQGLEWIGLINPYNDGTKYNEKFKVKATLTSDKSSSTAYMELSSLTSEDSAVYYCASYYYGSRYYFDYWGQGTTLTVSS VL: DIQMTQSSSYLSVSLGGRVTITCKASDHINNWLAWYQQKPGNAPRLLISGATSLETGVPSRFSGSGSGKDYTLSITSLQTEDVATYYCQQYWSIPLTFGAGTKLELKR", "CLASS NAME": 0}
{"BINDER": "DVD530 DLL4 arm (antibody, V domains shown, DVD-Ig inner) VH: EVQLQQSGPELEKPGASVKISCKASGYSFTGYNMNWVKQSNGKSLEWIGNIDPYFGGTNYNQKFKGKATLTVDKSSSTAYMQLKSLTSEDSAVYYCARNYDYDGGCFDYWGQGTTLTVSS VL: QAVVTQESALTTSPGETVTLTCRSSTGAVTTSNYANWVQEKPDHLFTGLIGGTNNRAPGVPARFSGSLIGDKAALTITGAQTEDEAIYFCALWYSNHWVFGGGTKLTVLG", "CLASS NAME": 1}

## Task Find out if reported EC50 for DVD490 DLL4 arm (antibody, V domains shown, DVD-Ig inner) VH: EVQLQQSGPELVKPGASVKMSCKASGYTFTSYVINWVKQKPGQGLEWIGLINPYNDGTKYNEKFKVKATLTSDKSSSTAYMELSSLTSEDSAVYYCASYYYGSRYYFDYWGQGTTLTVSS VL: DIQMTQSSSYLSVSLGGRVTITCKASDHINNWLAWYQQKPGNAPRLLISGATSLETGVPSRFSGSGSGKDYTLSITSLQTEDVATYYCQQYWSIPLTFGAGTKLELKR is less than 0.5 nM
## Result 0
